# Tested On: Muscarinic acetylcholine receptor M4 (Homo sapiens)
# Experiment Description: M4-linked GIRK flux change, two-sided – cell-based, HEK293 M4/GIRK, thallium flux, BTC-AM, M4 allosteric agonist project, primary screen (AID 625);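 further: thallium influx through GIRK channels coupled to M4 in HEK293 cells with BTC-AM dye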
# Measurement Setup: at 10 µM, actives lie on both sides
Reported Metric: fluorescence slope
Kindly provide the number alone.

// query What does the record list as fluorescence slope for "CCOC(=O)c1c(NC(=O)Cn2c(C)nc3ccccc32)sc2c1CCC2" ?
// result 0.00437

// query What does the record list as fluorescence slope for "O=C(CSc1ccc(Cl)cc1)OCc1nnc(-c2ccccc2)o1" ?
// result 0.00469

// query What does the record list as fluorescence slope for Cn1c(=O)c2c(ncn2CC(O)CNc2ccc(Cl)cc2)n(C)c1=O (centres undefined) ?
// result 0.00475

// query What does the record list as fluorescence slope for "COc1cc2[nH]c(=O)n(CCCCCC(=O)NCCCN3CCCC3=O)c(=O)c2cc1OC" ?
// result 0.0052

// query What does the record list as fluorescence slope for "Cc1ccc(S(=O)(=O)N2CCC(C(=O)N[C@@H](Cc3ccccc3)C(=O)O)CC2)cc1" ?
// result 0.00616

// query What does the record list as fluorescence slope for O=C(CSC1=NC(=O)C(Cc2ccccc2)C(=O)N1)NC1CCCCC1 (centres undefined) ?
// result 0.0034

// query What does the record list as fluorescence slope for "Cc1c(C(=O)O)oc2ccc(S(=O)(=O)NCc3ccccc3)cc12" ?
// result 0.00586

// query What does the record list as fluorescence slope for N#CC1=C(N)Oc2n[nH]c(-c3ccncc3)c2C1c1ccsc1 (centres undefined) ?
// result 0.00579

// query What does the record list as fluorescence slope for "Cc1ccc(NC(=O)Nc2ccc3c(c2)N(C)C(=O)CS3)nc1" ?
// result 0.00547

// query What does the record list as fluorescence slope for "Cc1cc2ncn(N)c2cc1C" ?
// result 0.00519

// query What does the record list as fluorescence slope for "O=C(CP(=O)(c1ccccc1)c1ccccc1)N1CCCCC1" ?
// result 0.00576

// query What does the record list as fluorescence slope for "O=C(CSc1nc2ccc(Cl)cc2[nH]1)NCc1ccco1" ?
// result 0.00642

// query What does the record list as fluorescence slope for Cc1nnc(SCCn2c(N3CC(C)CC(C)C3)nc3c2c(=O)n(C)c(=O)n3C)s1 (centres undefined) ?
// result 0.00478

// query What does the record list as fluorescence slope for "COc1ccc(NC(=O)Cn2nnc(-c3ccccc3N)n2)cc1OC" ?
// result 0.00531

----------
# Experiment Description: inhibitors of TNFa-induced NFkB p65 translocation, primary screen, imaging, HUVEC, MLSMR starter and 10KST1 sets (AID 438);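 further: compound added about 3h40 before a 20 min TNFalpha stimulation; signal is the nuclear over cytoplasmic p65 intensity ratio per well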
# Measurement Setup: HUVEC TNFa-induced p65 nuclear translocation; at 2 µM, stronger effect = higher value, 0% TNFa-plus-vehicle, 100% no-TNFa wells
Task for the reader: assign each of the following molecules its reported inhibition.
Please state the figure in %; there is no need to write the unit.

// query What does the record list as inhibition for "Cc1cc(C)c2c(n1)sc1c(N3CCOCC3)ncnc12" ?
// result -4.9

// query What does the record list as inhibition for "CC1(C)Cc2noc(N)c2C(C)(C)N1OC(=O)c1ccco1" ?
// result -6.6

// query What does the record list as inhibition for COc1ccc2c(c1OC)C(=O)OC2Nn1cncn1 (stereo not given) ?
// result -9.5

// query What does the record list as inhibition for COc1ccc(CN(C(=O)CNC(=O)c2ccco2)C(C(=O)NC2CCCC2)c2ccco2)cc1 (stereo not given) ?
// result 7.2

// query What does the record list as inhibition for "c1cncc(-c2nnc(-c3ccco3)o2)c1" ?
// result -1.1
